assay: small-molecule binders of probe aInhba, primary screen, biochemical, small-molecule microarray, 635/667 nm fluorescence (AID 1148); conditions: higher = more signal;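 further: score merges 667nm spot fluorescence with signal-to-noise for antibody binding to printed compounds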
Measurement type: composite z-score
Form field (numeric): enter value without unit.

Solved cases below.
Entry "COc1ccccc1CN1C(=O)c2ccccc2[C@@H](C(=O)NCCCN(C)C)[C@@H]1c1ccc(CO)cc1" — recorded composite z-score = 0.0028

"COCCOC(=O)N1C(=O)[C@@]2(c3cc(C#CCCO)ccc31)[C@H](c1ccc(O)cc1)N1[C@H](c3ccccc3)[C@H](c3ccccc3)OC(=O)[C@H]1[C@@H]2C(=O)N1CCc2cc(OC)c(OC)cc2C1" yielded composite z-score of 0.628

compound "CC(C)C(=C=CC[C@@H](O)c1ccccc1OCCO)C[C@@H](O)c1cc(Cl)cc(Cl)c1O" , composite z-score observed: 0.0622

Entry under test: CCCCC(O)C1C=CC2C(=O)NC(=O)C2N1Nc1ccc(Cl)cc1Cl (configuration not stated) . Its composite z-score was 0.166

composite z-score reported for this compound "CCCC=C(CCC)[C@@H](NC(=O)c1ccccc1)c1ccc(C(=O)OC)cc1" : 0.326

For "COCCOC(=O)N1C(=O)[C@@]2(c3cc(C#CC4=CCCCC4)ccc31)[C@H](c1ccccc1OCCO)N1[C@H](c3ccccc3)[C@H](c3ccccc3)OC(=O)[C@H]1[C@@H]2C(N)=O" the compound record lists composite z-score as -0.115

Let us examine a further case.
Record "Cc1c(NC(=O)/C(C#N)=C/c2ccc(Cl)cc2)c(=O)n(-c2ccccc2)n1C" . Reported composite z-score: -0.0259

###

# composite z-score annotations
target: Left-right determination factor 2 (Homo sapiens) (UniProt O00292); test: LEFTY2 binders on small-molecule microarrays, primary screen, biochemical, small-molecule microarray, 635 nm fluorescence scan (AID 1110); settings: LEFTY2 binding, higher = more signal
Sequence (O00292 whole entry, looked up): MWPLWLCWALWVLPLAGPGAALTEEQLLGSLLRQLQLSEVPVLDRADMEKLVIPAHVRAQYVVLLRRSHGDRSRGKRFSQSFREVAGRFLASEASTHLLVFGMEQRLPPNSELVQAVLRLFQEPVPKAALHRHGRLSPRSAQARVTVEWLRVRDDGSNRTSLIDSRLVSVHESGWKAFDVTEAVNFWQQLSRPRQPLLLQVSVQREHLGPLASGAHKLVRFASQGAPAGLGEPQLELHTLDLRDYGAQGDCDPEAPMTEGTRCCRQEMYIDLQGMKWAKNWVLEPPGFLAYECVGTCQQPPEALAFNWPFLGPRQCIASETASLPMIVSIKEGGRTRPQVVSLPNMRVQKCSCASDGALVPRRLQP
Lab note: write the figure by itself, no unit.

Solved cases (5 shown):
# composite z-score (compound: "CN(C)CCCCNC(=O)[C@H]1C[C@H]2C(=O)N[C@@H](Cc3ccccc3)C(=O)N2[C@H]1c1cccc(OCCO)c1" ) is 0.0071

Quick note, composite z-score for "CN1C(=O)[C@]2(CCS(=O)(=O)c3ccccc3)N=C(c3ccc(OCCCO)cc3)O[C@@H]2c2ccccc21" landed at -0.249

The compound identified as O=C1OCCC/C=C\[C@H]2OC34C=CCN(Cc5ccccc5)C(=O)[C@H]3N(CCCCCO)C(=O)[C@@H]4C12 (some centres undefined) registered its composite z-score at -0.296

composite z-score reported for this compound C=CCC(OC(C)=O)[C@@H]1[C@@H](N(Cc2cc3ccccc3o2)C(=O)c2cccc3ccccc23)c2cc(OCCCO)ccc2N1C(=O)c1ccc2ccccc2c1 (some centres undefined) : -0.338

// sample "NC(=O)NCC#Cc1ccc2c(c1)[C@]1(C(=O)N2)[C@H](C(=O)Nc2nc3ccccc3s2)[C@H]2C(=O)O[C@H](c3ccccc3)[C@H](c3ccccc3)N2[C@@H]1c1ccc(OCCO)cc1" , its composite z-score was -0.828

Further cases:
Entry under test: O=C1NC(=O)C2C1C=CC(C(O)c1cccc(O)c1)N2Nc1ccc(Cl)cc1Cl (centres undefined) . Its composite z-score was -0.715

Record "[N-]=[N+]=NCc1ccccc1C[C@]1(C(=O)O)COC(c2ccc(OCCCO)cc2)=N1" , field composite z-score: -1.47

Kindly note the recorded composite z-score for "NC(=O)[C@@]1(CCS(=O)(=O)c2ccccc2)COC(c2ccc(OCCCO)cc2)=N1" , which is -0.323
